# Target or test system: Cholecystokinin receptor type A (Rattus norvegicus, UniProt P30551)
# Sequence (P30551 whole entry): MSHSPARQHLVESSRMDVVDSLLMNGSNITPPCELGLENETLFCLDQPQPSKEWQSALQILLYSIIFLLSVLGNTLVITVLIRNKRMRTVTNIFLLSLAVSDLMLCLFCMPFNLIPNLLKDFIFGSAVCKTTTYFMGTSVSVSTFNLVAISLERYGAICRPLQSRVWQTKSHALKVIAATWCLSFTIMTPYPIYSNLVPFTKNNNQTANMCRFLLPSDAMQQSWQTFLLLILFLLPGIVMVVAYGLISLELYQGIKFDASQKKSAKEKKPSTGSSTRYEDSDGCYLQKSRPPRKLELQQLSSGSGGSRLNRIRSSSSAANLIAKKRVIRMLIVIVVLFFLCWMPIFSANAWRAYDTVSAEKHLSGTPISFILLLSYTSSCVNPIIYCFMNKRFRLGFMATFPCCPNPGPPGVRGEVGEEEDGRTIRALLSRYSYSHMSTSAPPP
# Assay details: In vitro inhibition of binding of [3H]pCCK-8 against Cholecystokinin type A receptor of rat pancreatic membranes
# Assay type: cell membranes, Membrane
Endpoint name: pKi
// field semantics: pKi = negative decimal log of concentration (mol/L)

Observe how each entry below is paired with its result.
CC(O)C(O)Nc1cccc(NC(=O)NC2C(=O)N(CC34C[C@H]5C[C@@H](C3)C[C@@H](C4)C5)c3ccccc3N(c3ccccc3)C2=O)c1 (mixture of isomers) ... 6.20
CC(C)C(C)CN1C(=O)C(NC(=O)Nc2ccccc2)C(=O)N(c2ccccc2)c2ccccc21 (racemic) ... 6.91

Now consider the entry below.
Form field: pKi recorded for O=C(Nc1ccccc1)NC1C(=O)N(CC23C[C@H]4C[C@@H](C2)C[C@@H](C3)C4)c2ccccc2N(c2ccccc2)C1=O (single isomer, unassigned; (-)) with Cholecystokinin receptor type A (Rattus norvegicus, UniProt P30551) (enter value)
6.32
